molecular target: SSTR5 (Homo sapiens); test: Functional assay of SSTR5 mediated cyclic AMP production in SSTR5 expressing CHO cells; conditions: Table 2; FSK plus SS-28; read-out: SSTR5 (cAMP) IC50
Sequence (P35346 whole entry): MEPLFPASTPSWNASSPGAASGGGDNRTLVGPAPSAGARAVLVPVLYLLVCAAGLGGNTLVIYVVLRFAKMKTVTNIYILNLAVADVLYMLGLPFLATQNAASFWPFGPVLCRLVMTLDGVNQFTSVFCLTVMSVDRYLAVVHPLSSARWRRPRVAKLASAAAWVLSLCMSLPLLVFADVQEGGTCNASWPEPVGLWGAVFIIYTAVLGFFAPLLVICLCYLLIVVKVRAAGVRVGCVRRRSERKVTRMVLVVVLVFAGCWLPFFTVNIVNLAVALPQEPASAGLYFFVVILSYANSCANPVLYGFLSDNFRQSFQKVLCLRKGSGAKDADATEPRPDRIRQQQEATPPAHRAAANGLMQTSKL
Quick reference: IC50 of the listed items.
Field: numeric (nM). Do not append units.

Use these answered entries as a reference point.
[[record]]
compound_structure = "CCOc1cc(CN2CCC3(CC2)CC(=O)N(c2ccc(C(=O)O)cc2)C3)cc(OCC)c1-c1ncc(F)cc1F"
attribute_measured = "IC50"
display_unit = "nM"
recorded_result = 3.6

[[record]]
compound_structure = "CCOc1ccc(-c2ccc(F)c(F)c2F)c(CN2CCC3(CC2)CC(=O)N(c2ccc(C(=O)O)cc2)C3)c1"
attribute_measured = "IC50"
display_unit = "nM"
recorded_result = 1.8

[[record]]
compound_structure = "CCOc1cc(CN2CCC3(CC2)CC(=O)N(c2nccc(O)n2)C3)cc(OCC)c1-c1ccc(F)cc1"
attribute_measured = "IC50"
display_unit = "nM"
recorded_result = 64


Determine its reported IC50: "CCOc1cc(CN2CCC3(CC2)CC(=O)N(c2ccc(C(=O)O)cc2)C3)cc(OCC)c1Br"
3.9

Dear colleague, please send me the reported IC50 for "CCOc1cc(CN2CCC3(CC2)CC(=O)N(c2ccc(C(=O)O)cc2)C3)cc(-c2ccc(F)cc2F)c1" when you can.
36
